SYSTEM UNDER TEST: SARS-CoV-2 RBD (RBD-2) (SARS-CoV-2)
ASSAY INFO: flow, HeLa-ACE2, mAb:RBD=2:1
VALUE TYPE: MFI (RBD binding to cell surface)
// keep it numeric: no unit symbol after the value

Exercise: Field request: MFI (RBD binding to cell surface) | item: L12.cP08D10 (antibody, V domains shown, human IgG1) VH: EVQLVQSGAEVKKPGASVKVSCKASGYIFSGYYMHWVRQAPGQGLEWMGWISPDSGGTNYAQNFQGRVTMTRDTSISTGYMELSRLRSDDTAMYYCARGPRYSGTYFDYWGQGVLVTVSS VL: QSVLTQPASVSGSPGQSITISCTGTSSDVGGYNYVSWYQQHPGKVPKLMIYDVSNRPSGVSNRFSGSKSGNTASLTISGLQAEDEADYYCSSYTSSSAQVFGGGTKLTVL
Key: 10500

Exercise: Please answer likewise for L12.cP08D07 (antibody, V domains shown, human IgG1) VH: QVQLQESGPGLVKPSETLSLTCTVSGGSISSSSYYWGWIRQPPGKGLEWIGSIYYSGSTYYNPSLKSRVTISVDTSKNQFSLKLSSVTAADTAVYYCARQGDCSTTSCAYDYWGQGTLVTVSS VL: SYELTQPPSVSVSPGQTARITCSGDALPKQYAYWYQQKPGQAPVLVIYKDSERPSGIPERFSGSSSGTTATLTISGVQAEDEADYYCQSADSSGTYLVVFGGGTKLAVL
Key: 10800

Exercise: And L12.bP11C10 (antibody, V domains shown, human IgG1) VH: QVQLVQSGAEVKKPGASVKVSCKASGYIFSGYYMHWVRQAPGQGLEWMGWISPDSGGTNYAQKFQGRVTMTRDTSITTGYMELSGLRSDDTAVYYCARGPRYSGTYFDYWGQGTLVTISS VL: QSALTQPTSVSGSPGQSITISCTGTSSDVGGYNYVSWYQQHPGKAPKLIIYDVSNRPSGVSNRFSGSKSGNTASLTISGLQAEDEADYYCSSYTVSSTQVFGGGTKLTVL ?
Key: 6900

Provenance of the data: patent US20230357364A1
